assay: VP16 transactivation reporter inhibitors, counter-screen for LRH-1 inverse agonist project, cell-based, luminescence, high throughput (AID 651615); conditions: Gal4-VP16 luciferase reporter cells, at 3.6 µM
The source made the active and inactive calls. No stated cut-off is given here; in the data, active means inhibition above about 33%; inactive means the rest.
Your reply should match one of these outcome classes. active, inactive

Given Smiles | Group Label
CC(C)[C@H](NC(=O)OCc1ccccc1)C(=O)OCC(=O)Nc1ccc(N2CCOCC2)cc1 | inactive

I would be grateful if you could indicate the recorded call for "Cc1cccc(-n2c(CNC(=O)c3ccccc3)nnc2SCC(=O)Nc2nccs2)c1" .
inactive

# iterate: "COc1ccc(S(=O)(=O)Nc2ccc3c(c2)n(C)c(=O)n3C)cc1F"
inactive

# iterate: "O=[N+]([O-])c1ccc(N2CCCCC2)nc1N1CCCCC1"
inactive

# iterate: "CN(C)c1ccc(/C=C/c2ccc3c4ccccc4ccc3[n+]2-c2ccccc2)cc1"
active
